# TESTED TARGET: T1, Source 2 VEGF-D, purified recombinant human VEGF-D monomer (R&D Systems, Catalog Number 622-VD/CF) (human, UniProt O43915 93-201)
# T1 construct: Bought protein; Whole entry named; also called Source 2 VEGF-D Monomer
# T1 sequence: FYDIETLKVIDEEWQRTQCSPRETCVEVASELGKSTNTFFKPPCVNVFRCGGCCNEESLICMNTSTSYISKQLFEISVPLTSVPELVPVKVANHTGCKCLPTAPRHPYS
# ASSAY INFO: SPR, KD against that of Ig-1A
MEASURED PROPERTY: Fold-improvement with respect to Ig-1A (fold)

>  <BINDER>
humanized IgG antibody derived from clone AW61 (antibody, V domains shown, IgG) VH: QVQLVQSGAEVKQPGASVKVSCKASGYTFTGYNMYWVRQAPGQGLEWMGYIDPYNGDTTYNQKFKGRATMTTDTSTSTAYMKLRSLRSDDTAVYYCARTSYYGGMDYWGRGTLVTVAS VL: DIVMTQTPLSSPVTLGQPASISCRSSQSLVHSNGNTYLHWLQQRPGQPPRLLIYKVSNRFSGVPDRFSGSGAGTDFTLKISRVEAEDVGVYYCSQSTHVPRTFGQGTKLEIKR

>  <MEASURED PROPERTY>
Fold-improvement with respect to Ig-1A

>  <UNIT LABEL>
fold

>  <ENDPOINT VALUE>
2.2

$$$$
>  <BINDER>
humanized IgG antibody derived from clone A63 (antibody, V domains shown, IgG) VH: QVQLVQSGAKVKQPGASVKASCKASGYTFTGYNMYWVRQAPGQGLEWMGYIDPYNGDTTYNQKFKGRVTMTTDTSTSTAYMELRSLRSDDTAVYYCARTSYYGGMDYWGRGTLVTVAS VL: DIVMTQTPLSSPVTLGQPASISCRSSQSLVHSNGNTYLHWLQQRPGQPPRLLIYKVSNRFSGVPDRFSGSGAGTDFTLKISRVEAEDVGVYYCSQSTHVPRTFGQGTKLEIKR

>  <MEASURED PROPERTY>
Fold-improvement with respect to Ig-1A

>  <UNIT LABEL>
fold

>  <ENDPOINT VALUE>
1.3

$$$$
>  <BINDER>
humanized IgG antibody derived from clone DI26 (antibody, V domains shown, IgG) VH: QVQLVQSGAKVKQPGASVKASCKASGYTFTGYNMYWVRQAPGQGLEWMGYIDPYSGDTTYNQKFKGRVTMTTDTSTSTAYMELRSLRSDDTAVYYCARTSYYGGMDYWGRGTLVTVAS VL: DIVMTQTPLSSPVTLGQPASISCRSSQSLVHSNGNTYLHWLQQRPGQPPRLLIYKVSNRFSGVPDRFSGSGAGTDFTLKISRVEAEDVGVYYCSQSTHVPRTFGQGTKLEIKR

>  <MEASURED PROPERTY>
Fold-improvement with respect to Ig-1A

>  <UNIT LABEL>
fold

>  <ENDPOINT VALUE>
2.2

$$$$
>  <BINDER>
humanized IgG antibody derived from clone F61 (antibody, V domains shown, IgG) VH: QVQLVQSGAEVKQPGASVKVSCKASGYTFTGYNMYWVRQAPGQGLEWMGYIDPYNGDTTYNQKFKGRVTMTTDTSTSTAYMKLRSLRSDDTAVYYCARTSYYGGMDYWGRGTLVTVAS VL: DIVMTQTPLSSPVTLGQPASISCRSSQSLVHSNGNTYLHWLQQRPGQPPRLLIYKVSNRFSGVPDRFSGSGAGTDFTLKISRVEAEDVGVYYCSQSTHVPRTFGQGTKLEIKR

>  <MEASURED PROPERTY>
Fold-improvement with respect to Ig-1A

>  <UNIT LABEL>
fold

>  <ENDPOINT VALUE>
1.8

$$$$

Data credit: patent US20120093811A1
